target: Insulin-like growth factor 1 receptor (Homo sapiens, UniProt P08069); test: Inhibition of IGF1-stimulated phosphorylation of human recombinant IGF1R expressed in NIH3T3 cells; assay type: cell-based
Sequence (P08069 31-736 limits assumed): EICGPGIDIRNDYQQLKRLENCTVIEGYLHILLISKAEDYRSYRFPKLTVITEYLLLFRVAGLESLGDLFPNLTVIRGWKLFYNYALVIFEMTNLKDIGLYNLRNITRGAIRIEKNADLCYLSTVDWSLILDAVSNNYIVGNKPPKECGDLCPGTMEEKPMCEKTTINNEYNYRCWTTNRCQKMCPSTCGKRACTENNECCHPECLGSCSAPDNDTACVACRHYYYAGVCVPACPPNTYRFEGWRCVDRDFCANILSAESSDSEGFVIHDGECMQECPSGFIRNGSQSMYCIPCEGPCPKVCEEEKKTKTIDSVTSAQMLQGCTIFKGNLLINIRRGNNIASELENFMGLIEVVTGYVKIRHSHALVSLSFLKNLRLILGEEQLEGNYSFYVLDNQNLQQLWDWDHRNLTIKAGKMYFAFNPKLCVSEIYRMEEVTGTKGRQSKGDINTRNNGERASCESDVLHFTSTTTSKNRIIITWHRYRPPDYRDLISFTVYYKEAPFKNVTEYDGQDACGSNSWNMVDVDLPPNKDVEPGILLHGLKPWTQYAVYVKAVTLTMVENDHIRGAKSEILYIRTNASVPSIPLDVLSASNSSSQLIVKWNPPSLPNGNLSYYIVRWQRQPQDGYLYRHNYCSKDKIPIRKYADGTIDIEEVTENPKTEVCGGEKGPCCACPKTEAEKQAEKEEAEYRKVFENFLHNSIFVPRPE
Sequence (P08069 741-1367 limits assumed): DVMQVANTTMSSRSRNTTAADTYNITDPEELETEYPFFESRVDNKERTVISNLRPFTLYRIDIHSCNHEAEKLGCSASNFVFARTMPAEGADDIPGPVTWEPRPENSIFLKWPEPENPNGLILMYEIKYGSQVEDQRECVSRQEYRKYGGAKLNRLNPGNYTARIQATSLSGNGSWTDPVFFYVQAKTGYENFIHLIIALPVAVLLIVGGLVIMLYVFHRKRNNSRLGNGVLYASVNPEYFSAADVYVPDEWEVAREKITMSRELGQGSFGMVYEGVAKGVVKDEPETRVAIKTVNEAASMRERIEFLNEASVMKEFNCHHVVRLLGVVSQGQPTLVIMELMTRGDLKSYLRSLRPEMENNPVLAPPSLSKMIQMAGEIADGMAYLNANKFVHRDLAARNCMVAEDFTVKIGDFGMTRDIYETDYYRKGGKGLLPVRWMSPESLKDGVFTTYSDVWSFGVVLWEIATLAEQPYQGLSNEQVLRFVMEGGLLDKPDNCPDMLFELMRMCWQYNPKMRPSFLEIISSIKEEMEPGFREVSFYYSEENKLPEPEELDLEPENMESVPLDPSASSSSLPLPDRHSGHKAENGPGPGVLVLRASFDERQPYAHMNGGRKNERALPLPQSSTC
value type: pIC50
Please keep in mind that pIC50 is minus log10 of the molar concentration; only the number is needed.

Worked cases, answers included:
• Nc1nccn2c(C3CCC3)nc(-c3cccc(OCc4ccccc4)c3)c12 = 5.94
• NC[C@H]1CC[C@H](c2nc(-c3cccc(OCc4ccccc4)c3)c3c(N)nccn32)CC1 = 6.27
• Nc1nccn2c1c(-c1cccc(OCc3ccccc3)c1)nc2[C@H]1CC[C@H](CN2CCC2)CC1 = 6.40
• NC[C@H]1C[C@@H](c2nc(-c3cccc(OCc4ccccc4)c3)c3c(N)nccn32)C1 = 6.16

Shift focus to the following entry.
[ask] Identify pIC50 associated with the compound "NC[C@H]1CC[C@@H](c2nc(-c3cccc(OCc4ccccc4)c3)c3c(N)nccn32)CC1"
[reply] 6.25

---

experiment: Oral bioavailability in CD1 mouse at 50 mg/kg, po; assay type: ADME, organism-based; details: in vivo
Entries annotated with measured bioavailability
Show the value, then the unit it is measured in.

Worked cases, answers included:
• Nc1nccn2c1c(-c1cccc(OCc3ccccc3)c1)nc2[C@H]1CC[C@H](C(N)=O)CC1 = 34%
• NC[C@H]1CC[C@H](c2nc(-c3cccc(OCc4ccccc4)c3)c3c(N)nccn32)CC1 = 47%

Shift focus to the following entry.
[ask] Identify bioavailability associated with the compound "Nc1nccn2c(C3CCC3)nc(-c3cccc(OCc4ccccc4)c3)c12"
[reply] 47%

---

assay: Half life in CD1 mouse at 1 mg/kg, iv; type: ADME, organism-based; parameters: dose 1 mg/kg, route intravenous; settings: in vivo
value type: half-life
Show the value, then the unit it is measured in.

• Nc1nccn2c1c(-c1cccc(OCc3ccccc3)c1)nc2[C@H]1CC[C@H](C(N)=O)CC1 = 0.63 h
• NC[C@H]1CC[C@H](c2nc(-c3cccc(OCc4ccccc4)c3)c3c(N)nccn32)CC1 = 2.29 h

[ask] Identify half-life associated with the molecule "Nc1nccn2c(C3CCC3)nc(-c3cccc(OCc4ccccc4)c3)c12"
[reply] 1.3 h

---

experiment: AUC (0 to infinity) in CD1 mouse at 50 mg/kg, po; type: ADME, organism-based; design: time infinity, dose 50 mg/kg, route oral; conditions: plasma
Entries annotated with measured AUC(0-inf)
Just the number in ng·h/mL, nothing appended.

Worked cases, answers included:
* Nc1nccn2c1c(-c1cccc(OCc3ccccc3)c1)nc2[C@H]1CC[C@H](C(N)=O)CC1 | 1320
* NC[C@H]1CC[C@H](c2nc(-c3cccc(OCc4ccccc4)c3)c3c(N)nccn32)CC1 | 3930

Shift focus to the following entry.
[ask] Identify AUC(0-inf) associated with the molecule "Nc1nccn2c(C3CCC3)nc(-c3cccc(OCc4ccccc4)c3)c12"
[reply] 1760

---

experiment: Cmax in CD1 mouse at 50 mg/kg, po; format: ADME, organism-based; set-up: dose 50 mg/kg, route oral; settings: in vivo
Entries annotated with measured Cmax
Just the number in nM, nothing appended.

Worked cases, answers included:
• NC[C@H]1CC[C@H](c2nc(-c3cccc(OCc4ccccc4)c3)c3c(N)nccn32)CC1 = 2850
• Nc1nccn2c1c(-c1cccc(OCc3ccccc3)c1)nc2[C@H]1CC[C@H](C(N)=O)CC1 = 2220

[ask] Identify Cmax associated with the compound "Nc1nccn2c(C3CCC3)nc(-c3cccc(OCc4ccccc4)c3)c12"
[reply] 860
